The reported numbers originate from patent US10709711B2.

Test system: Daudi (human B-lymphoblastoid cell from Burkitt's Lymphoma patient)
Test: Inhibition of cellular proliferation, Daudi cells (CellTiter-Glo)
Assay type: cell-based
Settings: EC50 measured as illustrated in Example 150 (CellTiter-Glo)

# molecule, unitsText, EC50
measured = [
    ("CC(C)N1CCN(c2ccc(Nc3ncc4cc5n(c4n3)C3(CCCCC3)CNC5=O)nn2)CC1", "nM", 589),
    ("CC(C)C1CN(c2ccc(Nc3ncc4cc5n(c4n3)C3(CCCCC3)CNC5=O)nc2)CCN1 (stereo not drawn)", "nM", 140),
    ("C[C@@H]1CN(c2ccc(Nc3ncc4cc5n(c4n3)C3(CCCCC3)CNC5=O)nc2)C[C@H](C)N1", "nM", 140),
    ("CC(C)C[C@@H]1CNC(=O)c2cc3cnc(Nc4ccc(N5CCN(C)CC5)cn4)nc3n21", "nM", 1170),
    ("CN(C)C1CCN(c2ccc(Nc3ncc4cc5n(c4n3)C3(CCCCC3)CNC5=O)nn2)CC1", "nM", 967),
    ("CN(C)C1CCN(c2ccc(Nc3ncc4cc5n(c4n3)C3(CCCC3)CNC5=O)nn2)CC1", "nM", 3300),
    ("CN1CCN(c2ccc(Nc3ncc4cc5n(c4n3)C3(CCCCC3)CNC5=O)nc2)CC1", "nM", 392),
    ("CC1CCN(C2CCN(c3ccc(Nc4ncc5cc6n(c5n4)C4(CCCCC4)CNC6=O)nc3)CC2)C1 (stereo not drawn)", "nM", 167),
    ("CC(C)N1CCN(c2ccc(Nc3ncc4cc5n(c4n3)C3(CCCCC3)CNC5=O)nc2)C[C@H]1C", "nM", 1260),
    ("O=C1NCC2(CCCCC2)n2c1cc1cnc(Nc3ccc(C(=O)N4CCN(C5CCC5)CC4)cn3)nc12", "nM", 501),
    ("O=C1NCC2(CCCC2)n2c1cc1cnc(Nc3ccc(N4CCNCC4)cn3)nc12", "nM", 485),
    ("C[C@H](O)CN1CCN(c2ccc(Nc3ncc4cc5n(c4n3)C3(CCCCC3)CNC5=O)nc2)C[C@@H]1C", "nM", 373),
]
